test: Pharmacokinetic property testing in rats; format: in vivo, SD rats; conditions: Sprague-Dawley, rat, in vivo; IV (1 mg/kg); male SD rats
endpoint.name: half-life (h)
Answer format: numeric, h implied, no suffix.

See these solved cases before continuing.
CCc1cc(/C(C)=N/OCc2ccc(-c3ccccc3)c(C)c2)ccc1CN1CC(C(=O)O)C1: 0.42
CCc1cc(/C(C)=N/OCc2ccc(-c3ccccc3)c(C)c2)ccc1CN1CC[C@H](C(=O)O)C1: 2.15

Read the next record carefully.
Memo: CCc1cc(/C(C)=N/OCc2ccc(-c3cnc(F)cn3)c(C)c2)ccc1CN1CC[C@H](C(=O)O)C1 , reported half-life: 1.18

###

test: Pharmacokinetic property testing in rats; assay type: in vivo, SD rats; conditions: Sprague-Dawley, rat, in vivo; PO (10 mg/kg); male SD rats
endpoint.name: half-life (h)
Answer format: numeric, h implied, no suffix.

See these solved cases before continuing.
CCc1cc(/C(C)=N/OCc2ccc(-c3ccccc3)c(C)c2)ccc1CN1CC[C@H](C(=O)O)C1 [Compound 30]: 2.78
CCc1cc(/C(C)=N/OCc2ccc(-c3cnc(F)cn3)c(C)c2)ccc1CN1CC[C@H](C(=O)O)C1 [Compound 67]: 2.17

Memo: CCc1cc(/C(C)=N/OCc2ccc(-c3ccccc3)c(C)c2)ccc1CN1CC(C(=O)O)C1 [Compound 22] , reported half-life: 2.16

###

experiment: Pharmacokinetic property testing in rats; type: in vivo, SD rats; conditions: Sprague-Dawley, rat, in vivo; PO (10 mg/kg); male SD rats, 3 per group
endpoint.name: Tmax (h)
Answer format: numeric, h implied, no suffix.

See these solved cases before continuing.
CCc1cc(/C(C)=N/OCc2ccc(-c3ccccc3)c(C)c2)ccc1CN1CC[C@H](C(=O)O)C1 [Compound 30]: 2
CCc1cc(/C(C)=N/OCc2ccc(-c3cnc(F)cn3)c(C)c2)ccc1CN1CC[C@H](C(=O)O)C1 [Compound 67]: 1.83

Memo: CCc1cc(/C(C)=N/OCc2ccc(-c3ccccc3)c(C)c2)ccc1CN1CC(C(=O)O)C1 [Compound 22] , reported Tmax: 0.83

###

test: Pharmacokinetic property testing in rats; type: in vivo, SD rats; details: male, Sprague-Dawley, rat, in vivo, oral, 10 mg/kg
endpoint.name: bioavailability (%)
Answer format: numeric, % implied, no suffix.

Memo: CCc1cc(/C(C)=N/OCc2ccc(-c3cnc(F)cn3)c(C)c2)ccc1CN1CC[C@H](C(=O)O)C1 , reported bioavailability: 76.2

Memo: CCc1cc(/C(C)=N/OCc2ccc(-c3ccccc3)c(C)c2)ccc1CN1CC[C@H](C(=O)O)C1 , reported bioavailability: 120

Memo: CCc1cc(/C(C)=N/OCc2ccc(-c3ccccc3)c(C)c2)ccc1CN1CC(C(=O)O)C1 , reported bioavailability: 23.5

###

molecular target: hS1P4 (Homo sapiens); construct: expressed in transfected cells; host or cells: CHO; experiment: Tango β-arrestin recruitment luciferase assay, Tango-hS1P4-CHO; assay type: cell-based; details: S1PR4; Tango-S1PR4-CHO-K1 cells; mean ± SD; read-out: EC50
Sequence (O95977 whole entry): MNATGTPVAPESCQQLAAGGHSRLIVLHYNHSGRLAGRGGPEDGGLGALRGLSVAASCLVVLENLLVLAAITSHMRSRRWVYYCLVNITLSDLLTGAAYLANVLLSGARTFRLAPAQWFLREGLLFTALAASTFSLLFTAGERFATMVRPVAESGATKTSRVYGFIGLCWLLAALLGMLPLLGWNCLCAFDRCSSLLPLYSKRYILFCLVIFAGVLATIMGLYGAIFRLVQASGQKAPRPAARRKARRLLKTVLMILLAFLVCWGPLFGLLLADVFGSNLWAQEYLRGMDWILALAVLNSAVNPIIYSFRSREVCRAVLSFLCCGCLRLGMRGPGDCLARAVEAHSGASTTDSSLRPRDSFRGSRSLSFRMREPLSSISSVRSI
endpoint.name: pEC50
Keep in mind that pEC50 stands for -log10 of concentration in molar terms.

See these solved cases before continuing.
CCCCCCCCCCCCC/C=C/[C@@H](O)[C@@H](N)COP(=O)(O)O [Compound S1P, Sphingosine-1-phosphate, reference compound]: 7.00
CCc1cc(/C(C)=N/OCc2ccc(-c3ccccc3)c(C)c2)ccc1CN1CC[C@H](C(=O)O)C1 [Compound 30]: 8.04

Read the next record carefully.
Memo: CCc1cc(/C(C)=N/OCc2ccc(-c3cnc(F)cn3)c(C)c2)ccc1CN1CC[C@H](C(=O)O)C1 [Compound 67] , reported pEC50: 8.74
